The following compounds are shown together with reported inhibition at 3 µM values.
- TEST_TARGET: 5-lipoxygenase (Homo sapiens)
- Construct: endogenous in cells; host or cells: human peripheral blood mononuclear leukocytes (PBMLs)
- Sequence (P09917 whole entry): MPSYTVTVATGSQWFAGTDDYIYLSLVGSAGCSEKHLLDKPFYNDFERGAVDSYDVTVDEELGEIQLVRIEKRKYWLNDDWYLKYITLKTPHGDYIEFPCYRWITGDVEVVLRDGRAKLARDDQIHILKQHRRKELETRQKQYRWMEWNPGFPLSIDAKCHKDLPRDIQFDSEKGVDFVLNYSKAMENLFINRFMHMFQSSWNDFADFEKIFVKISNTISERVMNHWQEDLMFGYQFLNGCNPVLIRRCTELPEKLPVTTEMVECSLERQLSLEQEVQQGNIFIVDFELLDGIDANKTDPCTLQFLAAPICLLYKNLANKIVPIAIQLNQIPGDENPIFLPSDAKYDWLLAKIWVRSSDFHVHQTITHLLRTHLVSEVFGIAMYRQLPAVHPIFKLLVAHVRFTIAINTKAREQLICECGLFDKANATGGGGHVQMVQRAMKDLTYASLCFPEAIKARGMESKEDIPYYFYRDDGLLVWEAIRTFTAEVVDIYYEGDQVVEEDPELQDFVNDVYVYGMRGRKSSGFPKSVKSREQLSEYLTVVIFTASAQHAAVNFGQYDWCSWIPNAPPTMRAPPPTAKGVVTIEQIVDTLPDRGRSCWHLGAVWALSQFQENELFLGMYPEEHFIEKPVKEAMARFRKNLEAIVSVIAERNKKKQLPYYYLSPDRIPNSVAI
- ASSAY_METHOD_TEXT: 5-lipoxygenase activity (LTB4) in human peripheral blood mononuclear leukocytes (Assay 6)
- Type: cell-based
- TEST_CONTEXT: 3 μM, human PBMLs, A23187 30 μM, read-out: Inhibition of 5-LO (%)
Structures can show the parent of a compound that is named as a salt.
READOUT_TYPE: inhibition at 3 µM (%)

[[record]]
compound = "COc1cc(CCC(=O)CC(=O)c2ccc(O)c(OC)c2)ccc1O"
measurement = 16

[[record]]
compound = "CCC(C(=O)CCc1ccc(O)c(OC)c1)C(=O)c1ccccc1 (stereo not drawn)"
measurement = 41

[[record]]
compound = "COc1cc(CCC(=O)CC(=O)c2ccccc2Cl)ccc1O"
measurement = 60

[[record]]
compound = "COc1cc(CCC(=O)CC(=O)Cc2cccc3ccccc23)ccc1O"
measurement = 47

[[record]]
compound = "COc1cc(CCC(=O)CC(=O)c2ccccc2C)ccc1O"
measurement = 77

[[record]]
compound = "COc1cc(CCC(=O)CC(=O)c2ccccc2)ccc1OCCN [Compound 87, hydrochloride]"
measurement = -6

[[record]]
compound = "COc1cc(CCC(=O)CC(=O)Cc2ccccc2)ccc1O"
measurement = 35

[[record]]
compound = "COc1cc(CCC(=O)C(C)C(=O)c2ccccc2)ccc1O (stereo not drawn)"
measurement = 47

[[record]]
compound = "COc1cc(CCC(=O)CC(=O)c2ccc(Cl)cc2)ccc1O"
measurement = 68


Sourced from patent US7589123B2
